# measurement target: full-length hepatitis C NS3 protease enzyme (HCV NS3/4A protease complexes) (Hepatitis C virus genotype 1a)
# measurement protocol: Inhibition assay (enzymatic assay) of HCV NS3/4A protease
# assay setup: enzyme 1 nM, 25 μM NS4A cofactor, 0.5 μM depsipeptide substrate, 30° C., competitive model
reported endpoint: Ki

Consider the following illustrative entries.
Entry under test: COc1ccc2c(O[C@@H]3C[C@H]4C(=O)N[C@]5(C(=O)NS(=O)(=O)C6CC6)C[C@H]5/C=C\CCCCN(C)C(=O)N4C3)nc(-c3ccccc3)nc2c1C . Its Ki was 0.1 to 4.9 nM

Consider COc1cc2nc(-c3ccccc3)nc(O[C@@H]3C[C@H]4C(=O)N[C@]5(C(=O)NS(=O)(=O)C6CC6)C[C@H]5/C=C\CCCCN(C)C(=O)N4C3)c2cc1C . Its measured Ki is 0.1 to 4.9 nM

Further cases:
# Ki of COc1ccc2c(O[C@@H]3C[C@H]4C(=O)N[C@]5(C(=O)NS(=O)(=O)C6CC6)C[C@H]5/C=C\CCCCN(C)C(=O)N4C3)nc(-c3ccccc3)nc2c1 = 0.1 to 4.9 nM

The reported value for COc1cc2nc(-c3ccccc3)nc(O[C@@H]3C[C@H]4C(=O)N[C@]5(C(=O)NS(=O)(=O)C6CC6)C[C@H]5/C=C\CCCCN(C)C(=O)[C@@H]4C3)c2cc1C in terms of Ki is 0.1 to 4.9 nM

Value of Ki reported for the compound COc1ccc2c(O[C@@H]3C[C@H]4C(=O)N[C@]5(C(=O)NS(=O)(=O)C6(C)CC6)C[C@H]5/C=C\CCCCCNC(=O)N4C3)nc(-c3ccccc3)nc2c1C is 0.1 to 4.9 nM

What the record says about CC(C)c1csc(-c2nc(O[C@@H]3C[C@H]4C(=O)N[C@]5(C(=O)NS(=O)(=O)C6CC6)C[C@H]5/C=C\CCCCN(C)C(=O)[C@@H]4C3)c3ccccc3n2)n1 : Ki is 0.1 to 4.9 nM

----------
# measurement target: full-length hepatitis C NS3 protease enzyme (HCV NS3/4A protease complexes) (Hepatitis C virus genotype 1a, UniProt P27958)
# Sequence (P27958 1027-1657, one chain of several): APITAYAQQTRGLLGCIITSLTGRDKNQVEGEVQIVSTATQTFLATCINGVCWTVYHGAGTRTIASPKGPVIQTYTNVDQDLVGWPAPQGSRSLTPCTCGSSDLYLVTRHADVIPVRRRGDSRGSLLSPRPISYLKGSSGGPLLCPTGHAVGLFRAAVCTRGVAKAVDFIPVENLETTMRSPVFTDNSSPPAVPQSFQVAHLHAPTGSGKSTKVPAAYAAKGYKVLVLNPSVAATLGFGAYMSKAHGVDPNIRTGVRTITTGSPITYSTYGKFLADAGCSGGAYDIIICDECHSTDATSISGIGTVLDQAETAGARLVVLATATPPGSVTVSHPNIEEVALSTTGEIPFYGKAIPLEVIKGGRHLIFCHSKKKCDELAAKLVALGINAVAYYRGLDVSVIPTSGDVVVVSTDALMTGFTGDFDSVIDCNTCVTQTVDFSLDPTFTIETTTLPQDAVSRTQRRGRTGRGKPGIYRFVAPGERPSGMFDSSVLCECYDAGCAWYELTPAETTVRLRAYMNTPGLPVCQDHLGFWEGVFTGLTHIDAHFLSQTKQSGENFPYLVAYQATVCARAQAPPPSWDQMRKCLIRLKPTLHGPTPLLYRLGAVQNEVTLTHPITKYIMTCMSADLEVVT
# measurement protocol: Inhibition assay (enzymatic assay) of HCV NS3/4A protease
# assay setup: enzyme 1 nM, 25 μM NS4A cofactor, 0.5 μM depsipeptide substrate, 30° C., competitive model
pKi: −log10 of the molar value.
Each record here notes measured pKi.

These solved cases illustrate the format of a correct answer.
pKi for COc1ccc2c(O[C@@H]3C[C@H]4C(=O)N[C@]5(C(=O)NS(=O)(=O)C6CC6)C[C@H]5/C=C\CCCCN(C)C(=O)[C@@H]4C3)nc(-c3ccccc3)nc2c1 is 8.31 to 10.00

Measured pKi of CN1CCN(c2nc(O[C@@H]3C[C@H]4C(=O)N[C@]5(C(=O)NS(=O)(=O)C6CC6)C[C@H]5/C=C\CCCCN(C)C(=O)[C@@H]4C3)c3ccccc3n2)CC1 : 7.00 to 8.30

compound COc1ccc2c(O[C@@H]3C[C@H]4C(=O)N[C@]5(C(=O)NS(=O)(=O)C6(C)CC6)C[C@H]5/C=C\CCCCN(C)C(=O)[C@@H]4C3)nc(-c3cccc(F)c3)nc2c1C , pKi observed: 8.31 to 10.00

Field pKi (entry COc1ccc2c(O[C@@H]3C[C@H]4C(=O)N[C@]5(C(=O)NS(=O)(=O)C6CC6)C[C@H]5/C=C\CCCCN(C)C(=O)[C@@H]4C3)nc(-c3ccccc3)nc2c1C ) reads 8.31 to 10.00

New cases:
Quick note, pKi for CC(C)Nc1nc(O[C@@H]2C[C@H]3C(=O)N[C@]4(C(=O)NS(=O)(=O)C5CC5)C[C@H]4/C=C\CCCCN(C)C(=O)[C@@H]3C2)c2ccccc2n1 landed at 8.31 to 10.00

----------
# measurement target: full-length hepatitis C NS3 protease enzyme (HCV NS3/4A protease complexes) (Hepatitis C virus genotype 1a, UniProt P27958)
# measurement protocol: Inhibition assay (enzymatic assay) of HCV NS3/4A protease
# assay setup: enzyme 1 nM, 25 μM NS4A cofactor, 0.5 μM depsipeptide substrate, 30° C., competitive model
reported endpoint: Ki

Reference set (4 entries):
Entry COc1ccc(-c2nc(O[C@@H]3C[C@H]4C(=O)N[C@]5(C(=O)NS(=O)(=O)C6CC6)C[C@H]5/C=C\CCCCN(C)C(=O)[C@@H]4C3)c3ccc(OC)c(C)c3n2)cc1 [Compound 138] ; Ki = 0.1 to 4.9 nM

For reference, reported Ki for CN1CCCC/C=C\[C@@H]2C[C@@]2(C(=O)NS(=O)(=O)C2CC2)NC(=O)[C@@H]2C[C@@H](Oc3nc(-c4ccccc4)nc4ccccc34)C[C@H]2C1=O [Compound 31] stands at 0.1 to 4.9 nM

The molecule COc1ccc2c(O[C@@H]3C[C@H]4C(=O)N[C@]5(C(=O)NS(=O)(=O)C6CC6)C[C@H]5/C=C\CCCCN(C)C(=O)N4C3)nc(-c3ccncc3)nc2c1C [Compound 179] showed Ki equal to 0.1 to 4.9 nM

According to the records, this molecule COc1ccc2c(O[C@@H]3C[C@H]4C(=O)N[C@]5(C(=O)NS(=O)(=O)C6CC6)C[C@H]5/C=C\CCCCN(C)C(=O)[C@@H]4C3)nc(-c3cc(F)cc(F)c3)nc2c1C [Compound 170] displays Ki of 5 to 99.9 nM

# input for lookup
Form field Ki, entry CN1CCCC/C=C\[C@@H]2C[C@@]2(C(=O)NS(=O)(=O)C2CC2)NC(=O)[C@@H]2C[C@@H](Oc3nc(-c4ccc(C#N)cc4)nc4ccccc34)C[C@H]2C1=O [Compound 73] : 100 to 1000 nM
